Hey, just so you know, these numbers are from the METLIN SMRT retention time set (Domingo-Almenara et al. 2019).

assay: gradient 5% acetonitrile 3 min, to 50% in 2 min, to 85% in 15 min, held 3 min, 100 µL/min; details: column: Zorbax Extend-C18 2.1 x 50 mm; eluents: water / acetonitrile, 0.1% formic acid
Measurement name: RP-LC retention time (s)

Would you please look over these solved cases?
CN(CC1(C)CCOCC1)C(=O)c1ccc(C#N)cc1
716
Cc1cc(C)cc(NC(=O)Cn2ccc3ccn(C)c3c2=O)c1
829
Cc1c(Cl)cccc1NC(=O)N1CCCC1c1nncn1-c1ccccc1 (stereo not given)
738

a: COCc1noc([C@@H]2CC(F)(F)CN2S(=O)(=O)c2ccccc2)n1
b: O=C(c1cc(-c2cccnc2)n[nH]1)N1CCN(C(=O)C2CCC2)CC1
## Input Hi there! Just curious which has the higher RP-LC retention time between a and b . // output: label of the selected item
## Output a
